# IC50 values compiled below
- system: ATP-dependent translocase ABCB1 (Homo sapiens)
- Sequence (P08183 whole entry): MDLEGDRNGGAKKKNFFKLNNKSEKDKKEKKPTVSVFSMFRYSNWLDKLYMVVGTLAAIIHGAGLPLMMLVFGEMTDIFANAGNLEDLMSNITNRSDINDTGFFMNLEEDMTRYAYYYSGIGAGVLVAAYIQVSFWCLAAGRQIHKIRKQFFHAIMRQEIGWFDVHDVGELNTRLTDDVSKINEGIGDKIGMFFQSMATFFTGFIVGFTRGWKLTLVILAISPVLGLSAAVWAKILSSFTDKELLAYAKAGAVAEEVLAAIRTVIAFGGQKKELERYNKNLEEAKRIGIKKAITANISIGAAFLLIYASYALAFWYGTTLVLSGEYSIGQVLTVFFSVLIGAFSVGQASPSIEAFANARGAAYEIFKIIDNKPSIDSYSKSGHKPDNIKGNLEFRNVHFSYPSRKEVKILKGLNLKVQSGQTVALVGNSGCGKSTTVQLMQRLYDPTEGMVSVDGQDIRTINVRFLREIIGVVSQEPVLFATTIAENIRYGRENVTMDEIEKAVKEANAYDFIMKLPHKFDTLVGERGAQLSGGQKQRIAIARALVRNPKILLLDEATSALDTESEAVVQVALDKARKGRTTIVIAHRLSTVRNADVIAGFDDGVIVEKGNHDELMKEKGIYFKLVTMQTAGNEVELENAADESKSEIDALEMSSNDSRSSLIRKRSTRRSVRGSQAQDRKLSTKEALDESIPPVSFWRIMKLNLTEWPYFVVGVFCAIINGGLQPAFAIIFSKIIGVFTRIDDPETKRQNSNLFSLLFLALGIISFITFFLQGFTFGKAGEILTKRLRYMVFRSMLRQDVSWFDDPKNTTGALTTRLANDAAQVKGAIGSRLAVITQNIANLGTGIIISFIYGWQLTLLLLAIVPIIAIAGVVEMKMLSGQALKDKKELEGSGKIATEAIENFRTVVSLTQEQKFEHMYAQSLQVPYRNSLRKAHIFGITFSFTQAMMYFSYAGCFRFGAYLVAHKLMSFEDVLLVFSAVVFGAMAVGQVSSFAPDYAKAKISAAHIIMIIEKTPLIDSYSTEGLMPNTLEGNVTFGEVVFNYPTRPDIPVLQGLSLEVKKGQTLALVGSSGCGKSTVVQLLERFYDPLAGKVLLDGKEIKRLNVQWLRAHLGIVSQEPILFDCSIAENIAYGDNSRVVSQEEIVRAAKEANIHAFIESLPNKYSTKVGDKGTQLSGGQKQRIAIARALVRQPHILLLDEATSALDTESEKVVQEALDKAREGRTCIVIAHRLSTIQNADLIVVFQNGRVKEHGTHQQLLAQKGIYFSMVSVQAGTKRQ
- testSummary: TP_TRANSPORTER: inhibition of Digoxin transepithelial transport (basal to apical) (Digoxin: 5 uM) in Caco-2 cells

[
  {
    "molecule": "COc1ccc([C@@](C#N)(CCCN(C)CCc2ccc(OC)c(OC)c2)C(C)C)cc1O",
    "system": "ATP-dependent translocase ABCB1 (Homo sapiens)",
    "IC50 [nM]": 1600
  },
  {
    "molecule": "COc1ccc(CCNCCCC(C#N)(c2ccc(OC)c(OC)c2)C(C)C)cc1OC (configuration not stated)",
    "system": "ATP-dependent translocase ABCB1 (Homo sapiens)",
    "IC50 [nM]": 300
  }
]
